Molecular target: T1, human MCSP(D3 domain)-avi-his (human, UniProt Q6UVK1 1587-2221, limits assumed)
T1 construct: domain: D3 domain; also called hu-MCSP(D3 domain)-avi-his
T1 sequence (looked up): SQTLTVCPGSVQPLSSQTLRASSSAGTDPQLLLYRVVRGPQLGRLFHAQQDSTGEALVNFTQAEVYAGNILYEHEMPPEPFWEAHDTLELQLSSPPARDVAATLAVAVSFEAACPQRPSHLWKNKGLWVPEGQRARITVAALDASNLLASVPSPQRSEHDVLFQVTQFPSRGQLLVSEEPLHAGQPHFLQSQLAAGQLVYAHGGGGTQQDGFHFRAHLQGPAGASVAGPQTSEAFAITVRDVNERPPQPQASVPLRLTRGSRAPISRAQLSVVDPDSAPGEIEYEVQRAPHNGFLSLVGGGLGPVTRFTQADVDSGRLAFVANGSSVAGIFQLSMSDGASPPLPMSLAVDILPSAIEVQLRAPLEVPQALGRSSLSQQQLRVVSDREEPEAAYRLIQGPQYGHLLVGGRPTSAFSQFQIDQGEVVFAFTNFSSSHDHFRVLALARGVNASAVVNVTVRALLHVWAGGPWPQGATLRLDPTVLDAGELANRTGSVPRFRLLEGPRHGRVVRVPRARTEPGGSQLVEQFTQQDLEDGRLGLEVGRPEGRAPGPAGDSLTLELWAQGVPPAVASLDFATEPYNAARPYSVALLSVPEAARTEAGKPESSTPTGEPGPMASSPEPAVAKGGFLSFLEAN
Test: ratio of ProteOn IgG KD against parental M4-3/ML2 IgG
MEASURED_QUANTITY: fold increase over parent (IgG KD, comparative binding affinity)
Could you give the number and then its unit, please?

Enquiry: Can you share its fold increase over parent (IgG KD, comparative binding affinity)? I mean this binder: M4-3(A7)/ML2(C5) IgG (antibody, V domains shown, Human IgG1 format) VH: QVQLQESGPGLVKPSQTLSLTCTVSGGSITDGYYWNWIRQHPGKGLEWIGYITFDGRNNYNPSLKSRVTISRDTSKNQFSLKLSSVTAADTAVYYCADFDYWGQGTLVTVSS VL: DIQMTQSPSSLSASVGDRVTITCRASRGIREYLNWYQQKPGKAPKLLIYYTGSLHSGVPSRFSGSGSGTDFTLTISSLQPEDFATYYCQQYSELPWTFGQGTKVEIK
Return: 28.6 fold

Further cases:
Enquiry: Can you share its fold increase over parent (IgG KD, comparative binding affinity)? I mean this binder: M4-3(A7)/ML2(E10) IgG (antibody, V domains shown, Human IgG1 format) VH: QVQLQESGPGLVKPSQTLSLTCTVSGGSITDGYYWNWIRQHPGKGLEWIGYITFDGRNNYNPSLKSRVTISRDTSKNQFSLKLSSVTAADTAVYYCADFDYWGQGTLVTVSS VL: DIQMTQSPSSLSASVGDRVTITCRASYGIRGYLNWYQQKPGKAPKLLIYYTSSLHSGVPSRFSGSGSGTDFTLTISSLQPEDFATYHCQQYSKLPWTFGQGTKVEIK
Return: 6.7 fold

Enquiry: Same lookup for M4-3(A7)/ML2(G3) IgG (antibody, V domains shown, Human IgG1 format) VH: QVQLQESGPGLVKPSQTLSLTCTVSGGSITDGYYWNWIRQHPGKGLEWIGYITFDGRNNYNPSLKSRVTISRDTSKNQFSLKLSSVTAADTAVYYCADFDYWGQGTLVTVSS VL: DIQMTQSPSSLSASVGDRVTITCRASQGIRNYLNWYQQKPGKAPKLLIYYTSSLHSGVPSRFSGSGSGTDYTLTISSLQPEDFATYYCQQYSALPWTFGQGTKVEIK , please.
Return: 28.6 fold

Enquiry: Same lookup for M4-3(C1)/ML2(C5) IgG (antibody, V domains shown, Human IgG1 format) VH: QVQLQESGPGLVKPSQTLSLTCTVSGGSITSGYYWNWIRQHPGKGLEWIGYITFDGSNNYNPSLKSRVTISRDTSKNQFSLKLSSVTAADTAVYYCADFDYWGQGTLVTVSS VL: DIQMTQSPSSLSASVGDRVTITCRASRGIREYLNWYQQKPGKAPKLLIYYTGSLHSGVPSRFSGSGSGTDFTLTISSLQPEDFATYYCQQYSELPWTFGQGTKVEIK , please.
Return: 10 fold

Enquiry: Same lookup for M4-3(A7)/ML2 IgG (antibody, V domains shown, Human IgG1 format) VH: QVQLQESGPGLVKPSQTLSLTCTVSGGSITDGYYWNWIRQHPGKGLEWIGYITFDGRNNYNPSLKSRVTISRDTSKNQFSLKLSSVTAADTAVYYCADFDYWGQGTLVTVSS VL: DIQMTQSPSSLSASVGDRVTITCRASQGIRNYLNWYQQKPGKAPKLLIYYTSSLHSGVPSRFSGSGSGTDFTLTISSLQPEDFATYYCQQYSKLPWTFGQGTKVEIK , please.
Return: 2.5 fold

Enquiry: Same lookup for M4-3/ML2 (E10/G3) IgG (antibody, V domains shown, Human IgG1 format; also called MCSP ML2(E10-G3)) VH: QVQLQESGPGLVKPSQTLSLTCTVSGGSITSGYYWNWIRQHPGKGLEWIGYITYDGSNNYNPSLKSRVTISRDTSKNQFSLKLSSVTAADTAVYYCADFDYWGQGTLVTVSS VL: DIQMTQSPSSLSASVGDRVTITCRASYGIRGYLNWYQQKPGKAPKLLIYYTSSLHSGVPSRFSGSGSGTDFTLTISSLQPEDFATYHCQQYSALPWTFGQGTKVEIK , please.
Return: 5 fold

Enquiry: Same lookup for M4-3/ML2(G3) IgG (antibody, V domains shown, Human IgG1 format) VH: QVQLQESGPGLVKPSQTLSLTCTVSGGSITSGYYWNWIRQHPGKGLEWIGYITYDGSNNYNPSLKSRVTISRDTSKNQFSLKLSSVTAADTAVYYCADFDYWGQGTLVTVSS VL: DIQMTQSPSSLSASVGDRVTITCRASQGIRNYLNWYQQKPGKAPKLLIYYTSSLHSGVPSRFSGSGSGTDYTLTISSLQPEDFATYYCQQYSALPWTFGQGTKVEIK , please.
Return: 6.7 fold

Enquiry: Same lookup for M4-3/ML2 (C5/G3) IgG (antibody, V domains shown, Human IgG1 format; also called MCSP ML2(C5-G3)) VH: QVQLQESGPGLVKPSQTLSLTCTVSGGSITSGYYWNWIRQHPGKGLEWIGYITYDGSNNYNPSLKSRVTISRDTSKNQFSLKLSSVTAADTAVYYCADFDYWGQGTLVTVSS VL: DIQMTQSPSSLSASVGDRVTITCRASRGIREYLNWYQQKPGKAPKLLIYYTGSLHSGVPSRFSGSGSGTDFTLTISSLQPEDFATYYCQQYSALPWTFGQGTKVEIK , please.
Return: 2.9 fold
